The measurements presented in this section are drawn from patent US20250179059A1.

Overview of recorded GI50 for various compounds
- Test system: human SKM-1 acute myeloid leukemia cells
- method.summary: SKM-1 antiproliferation cell-based assay (ATPlite)
- test.context: Homo sapiens, SKM-1, 96 h, SKM-1 antiproliferation assay, 4 days, Table C2

Example entries begin here.
[[record]]
structure_notation = "CN[C@H]1CCN(c2cc(-c3cc(F)cc(-c4ccc(N5CCN(C)C5=O)c(Cl)c4)c3O)ccn2)C1"
result = "0.03 to 0.3 µM"

[[record]]
structure_notation = "COCCCOc1cc(-c2cc(F)cc(-c3ccc(-n4ccn(C)c4=O)c(Cl)c3)c2O)cc(N2CCN[C@H](C)C2)n1"
result = "0.0003 to 0.03 µM"

[[record]]
structure_notation = "CC(=O)Nc1ccc(-c2cccc(-c3ccc(F)c(N4CCNCC4)c3)c2O)cc1F"
result = "0.3 to 3 µM"

[[record]]
structure_notation = "C#CCN1CCN(c2ccc(-c3cc(F)cc(-c4ccnc(N5CCNCC5)c4)c3O)cc2Cl)C1=O"
result = "0.3 to 3 µM"

[[record]]
structure_notation = "[2H]C([2H])([2H])n1ccn(-c2ccc(-c3cc(F)cc(-c4ccnc(N5CCN[C@H](C)C5)c4)c3O)cc2Cl)c1=O"
result = "0.0003 to 0.03 µM"


Lookup: Return GI50 measured with human SKM-1 acute myeloid leukemia cells given this compound: Cn1cc(-c2cc(F)cc(-c3ccc(-n4ccn(C)c4=O)c(Cl)c3)c2O)cc(N2CC[C@H](N)C2)c1=O
Found: 0.0003 to 0.03 µM

Lookup: Return GI50 measured with human SKM-1 acute myeloid leukemia cells given this compound: Cc1cc(-c2cc(F)cc(-c3ccc(-n4ccn(C)c4=O)c(Cl)c3)c2O)cc(N2CCN(C(C)(C)C)CC2)c1
Found: 0.0003 to 0.03 µM
